Biological target: T1, NPY2R
T1 sequence (P49146 1-381, species assumed, looked up): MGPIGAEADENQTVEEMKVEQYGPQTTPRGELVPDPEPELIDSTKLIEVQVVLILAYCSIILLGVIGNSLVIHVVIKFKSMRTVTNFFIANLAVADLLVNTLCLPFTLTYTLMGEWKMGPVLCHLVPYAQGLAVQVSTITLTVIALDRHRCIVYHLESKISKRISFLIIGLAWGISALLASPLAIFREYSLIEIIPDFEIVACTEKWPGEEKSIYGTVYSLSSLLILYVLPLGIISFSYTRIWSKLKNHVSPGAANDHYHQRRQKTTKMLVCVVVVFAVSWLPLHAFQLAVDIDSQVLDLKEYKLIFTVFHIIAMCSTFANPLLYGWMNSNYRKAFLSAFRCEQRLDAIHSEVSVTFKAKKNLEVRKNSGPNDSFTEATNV
Assay: cell-based or functional assay
Starred links: 1 amine or outer side, 2 acyl side, 3 side chain; linkers in the order of their positions; H or OH if unused. Non-standard residues stand in square brackets, D forms with d. Groups on a side chain read outwards from the residue. No end group written: not given here. *: point of attachment. C20 diacid = O=C(O)CCCCCCCCCCCCCCCCCCC(=O)*; Phe(4-Me) = Cc1ccc(C[C@H](N)C(=O)O)cc1; γGlu = O=C(O)[C@H](CCC(=O)[*:2])N[*:1]
propertyMeasured: NPY2R pEC50

// solved cases for NPY2R pEC50 follow
{"binder": "PKPEAPGK([γGlu-γGlu-C20 diacid])DASPEEWNRKYKDLRHYLNWLTRQRF-NH2 [Compound A68]", "NPY2R pEC50": "9.7 -Log(EC50, M)"}
{"binder": "PKPEAPGK([γGlu-γGlu-C20 diacid])DASPEEWTRYYKDLRHYLNWLTRQRF-NH2 [Compound A26]", "NPY2R pEC50": "10.7 -Log(EC50, M)"}
{"binder": "PKPEAPGK([γGlu-γGlu-C20 diacid])DASPEEWNRYYADLRHYLNWLTRQR[Phe(4-Me)]-NH2 [Compound A58]", "NPY2R pEC50": "10.3 -Log(EC50, M)"}

With those in mind, consider the next binder.
NPY2R pEC50 for PKPEAPGK([γGlu-γGlu-C20 diacid])DASPEEWNRYY[dK]DLRHYLNWLTRQRF-NH2 [Compound A21] is 10.4 -Log(EC50, M)
